The measured values listed here are drawn from the supplement of paper PMC6555819.

# System: RARb:RXRa (NR concentration 270 nM, RXRa partner concentration 90 nM)
# experiment: PBM binding z-score (relative to random genomic background probes); higher = stronger binding; sequences stand for … in GC…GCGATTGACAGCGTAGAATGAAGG
Please use TRUE whenever PBM binding z-score is not below 2, and FALSE whenever it is.

Recorded results for 2 sequences are shown here.
1) TCTCGTAGATCAAGCAGGTTAAGAAAGCCTGAGT	FALSE
2) TAGCCTAGGTCCGATCGGGCCAGTATACGCTATA	FALSE

Check this sequence for PBM binding z-score at or above 2: CCTCGGAGGACAACAGGAGGTAAGAGCTGCCAGA FALSE

Item CCTAGCAGGCCAATCTGGGTCACCCAAGGCTTGA with PBM binding z-score of 2 or above? FALSE

Please indicate if the recorded PBM binding z-score for TCTTGTAGATCAATAGAGGTTGAGAAAGTGCGCT meets or exceeds 2. FALSE
